# tested on: hNav1.7 (Homo sapiens (Human))
# experiment description: Electrophysiological assay (EP), voltage clamp on Syncropatch 384PE
# Format: cell-based
# assay context: CHO cells expressing Nav1.7, holding potential −50 mV, 7.5 min compound incubation; read-out: EP_SP hNav1.7 EVO IC50
pIC50: −log10 of the molar value.
Classify by measured pIC50: satisfied if it is equal to or exceeds 7, not satisfied if it is smaller.

Lookup: Could you tell me if the measured pIC50 of COc1cc(-c2cccc(C(F)(F)F)c2)cc(F)c1N1C(=O)CO[C@H]2CN(S(=O)(=O)Nc3ccon3)CC[C@@H]21 [Example 20] reaches 7 or more?
Found: satisfied

Lookup: Does the reported pIC50 for COc1cc(-c2cc(F)cc(C(F)(F)F)c2)c(F)cc1N1C(=O)CO[C@@H]2CN(S(=O)(=O)Nc3ccon3)CC[C@H]21 [Example 5] fall at or above the 7 mark?
Found: satisfied

Lookup: Identify whether the reported pIC50 of the following compound is 7 or greater: N#Cc1cc(-c2cccc(C(F)(F)F)c2)c(F)cc1N1C(=O)CO[C@H]2CN(S(=O)(=O)Nc3ccon3)CC[C@@H]21 [Example 24]
Found: not satisfied

Lookup: For this compound, is measured pIC50 7 or higher? COc1cc(-c2cccc(OC(F)(F)F)c2)c(F)cc1N1C(=O)CO[C@@H]2CN(S(=O)(=O)Nc3ccon3)CC[C@H]21 [Example 29]
Found: satisfied

Lookup: Evaluate COc1cc(-c2cccc(C(F)F)c2)c(F)cc1N1C(=O)CO[C@H]2CN(S(=O)(=O)Nc3ccon3)CC[C@@H]21 [Example 16] : pIC50 at minimum 7?
Found: satisfied

Lookup: Form field: pIC50 at least 7? Entry: COc1cc(-c2cccc(C(F)(F)F)c2)c(F)cc1N1C(=O)CO[C@H]2CN(S(=O)(=O)Nc3ccon3)CC[C@@H]21 [Example 4]
Found: satisfied

---

Record form. Attribute: log10(IC50). Fill in for each entry.
# tested on: hNav1.7 (Homo sapiens (Human))
# experiment description: Tritiated compound binding to membranes from cells heterologously expressing hNav1.7 and the β1 subunit (LBA)
# assay context: competitive binding vs [3H]compound, membranes with hNav1.7 and β1 subunit; read-out: Nav1.7 LBA EVO IC50
# Protocol: Example 39A. Tritiated Compound Binding to Membranes Isolated from Cells that Heterologously Express hNav1.7 and the β1 Subunit Preparation of membranes containing recombinantly expressed sodium channels: Frozen recombinant cell pellets were thawed on ice and diluted to 4 times the cell pellet weight with ice cold 50 mM Tris HCl, pH 7.4 buffer. […] Protein concentrations were determined by Bradford Assay and the membranes were stored at −80° C. […]
A difference of one corresponds to tenfold IC50; all values are log10 with IC50 in µM.

Lookup: Provide log10(IC50) value for the following compound: COc1cc(-c2cccc(C(F)(F)F)c2)c(F)cc1N1C(=O)CC[C@@H]2CN(S(=O)(=O)Nc3ccon3)CC[C@@H]21 [Example 38]
Found: -0.19

Lookup: Supply measured log10(IC50) of COc1cc(-c2cccc(OC(F)(F)F)c2)c(F)cc1N1CCO[C@H]2CN(S(=O)(=O)Nc3ccon3)CC[C@@H]21 [Example 32] in your reply.
Found: -0.83

Lookup: Name the recorded log10(IC50) of the compound listed here: COc1cc(-c2ccc(F)c(C(F)(F)F)c2)c(F)cc1N1C(=O)CO[C@@H]2CN(S(=O)(=O)Nc3ccon3)CC[C@H]21 [Example 1]
Found: -1.35

Lookup: Determine its reported log10(IC50): COc1nc(-c2cccc(C(F)(F)F)c2)c(F)cc1N1C(=O)CO[C@@H]2CN(S(=O)(=O)Nc3ccon3)CC[C@H]21 [Example 21]
Found: 0.30

Lookup: Tell me its log10(IC50) given COc1cc(-c2cccc(C(F)F)c2)c(F)cc1N1C(=O)CO[C@@H]2CN(S(=O)(=O)Nc3ccon3)CC[C@H]21 [Example 15] as the entry.
Found: 0.30

Lookup: Fill in log10(IC50) for record COc1cc(-c2cccc(OC(F)(F)F)c2)c(F)cc1N1C(=O)CO[C@H]2CN(S(=O)(=O)Nc3ccon3)CC[C@@H]21 [Example 30]
Found: -1.45
